method: physchem
conditionLabel: pH 6
reportedProperty: pKa

Query block: I would be grateful if you could share the reported pKa for Oc1cccnc1CN1CCCC1 [C8, 2-(pyrrolidin-1-ylmethyl)pyridin-3-ol] .
Result block: 7 to 8

* * *

systemName: isopropyl phosphate-aged eeAChE (Electrophorus electricus, UniProt O42275)
Sequence (O42275 24-633): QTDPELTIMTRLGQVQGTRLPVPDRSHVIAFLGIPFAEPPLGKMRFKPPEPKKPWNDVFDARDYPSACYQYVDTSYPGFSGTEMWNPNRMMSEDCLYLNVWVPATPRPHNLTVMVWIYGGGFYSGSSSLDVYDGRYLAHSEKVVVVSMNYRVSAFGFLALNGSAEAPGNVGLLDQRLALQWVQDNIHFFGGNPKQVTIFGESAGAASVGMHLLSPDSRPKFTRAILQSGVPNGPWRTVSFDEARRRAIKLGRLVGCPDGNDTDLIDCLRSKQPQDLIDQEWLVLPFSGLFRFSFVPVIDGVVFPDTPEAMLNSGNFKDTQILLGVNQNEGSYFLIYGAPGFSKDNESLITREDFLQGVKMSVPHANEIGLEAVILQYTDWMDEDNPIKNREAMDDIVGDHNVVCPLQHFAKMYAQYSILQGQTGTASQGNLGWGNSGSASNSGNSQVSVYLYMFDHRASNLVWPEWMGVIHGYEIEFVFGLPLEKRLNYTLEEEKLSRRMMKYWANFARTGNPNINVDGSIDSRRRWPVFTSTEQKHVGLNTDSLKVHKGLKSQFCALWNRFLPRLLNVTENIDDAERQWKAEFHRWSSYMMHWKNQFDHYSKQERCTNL
method: biochemical
reportedProperty: EC50 (mM)
A number alone suffices; assume mM.

Query block: Any idea what EC50 was measured for "Oc1cccnc1CN1CCCC1" ?
Result block: 5.87
